test system: ATP; assay: switch fluorescence ratio, 500 uM ATP over buffer (Cy3 cluster intensity, sum of 5 cycles each) (fold (ratio)); higher = stronger signal-on switching upon ATP binding; sequences stand for … in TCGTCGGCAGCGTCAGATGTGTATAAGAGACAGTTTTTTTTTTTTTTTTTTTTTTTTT…TC; conditions: aptamer strand: ATP DNA aptamer (quencher-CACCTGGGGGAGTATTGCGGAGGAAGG + anchor), 100 nM annealed; ATP concentration: 500 uM;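 further: ATP exposure 15 min at 22 °C before imaging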
QUANTITY_MEASURED: switch fluorescence ratio

In [3]: df
Out[3]:
    ordered_residues  measured_on  result_number
 0        TGGTTATACT          ATP          0.973
 1        AGAGTCAACT          ATP              1
 2        CGTGGGCAAG          ATP          0.996
 3        GGCGGGTGAG          ATP           1.03
 4        TTTGGGGATT          ATP           1.01
 5        GACTGAGAAG          ATP          0.945
 6        AAGAGGTCAG          ATP           1.03
 7        CTCAGGGATT          ATP           1.07
 8        ACAGCAGTGT          ATP           1.03
 9        GGAATAATTT          ATP           1.51
10        CTAACAGGGG          ATP           1.43
11        ATTATTTATC          ATP          0.985
12        AAGTCGAGTG          ATP          0.994
13        ATTCTCATTG          ATP          0.982

###

test system: ATP; assay: switch fluorescence ratio, 500 uM ATP over buffer (Cy3 cluster intensity, sum of 5 cycles each) (fold (ratio)); higher = stronger signal-on switching upon ATP binding; sequences stand for … in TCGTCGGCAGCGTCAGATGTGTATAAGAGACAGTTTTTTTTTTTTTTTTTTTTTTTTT…TC; conditions: aptamer strand: ATP DNA aptamer (quencher-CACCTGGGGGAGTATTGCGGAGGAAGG + anchor), 100 nM annealed; ATP concentration: 500 uM;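 further: ATP exposure 15 min at 22 °C before imaging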
QUANTITY_MEASURED: switch fluorescence ratio

    ordered_residues          quantity_measured  result_number
 0        AGGGTAACGA  switch fluorescence ratio          0.999
 1        GGGCCCCTTG  switch fluorescence ratio           1.01
 2        TAGGGCTGGG  switch fluorescence ratio          0.972
 3        GGGAAGGCGG  switch fluorescence ratio           1.02
 4        GTCTGATTTG  switch fluorescence ratio          0.999
 5        CAGCTGAGGC  switch fluorescence ratio          0.976
 6        GTTGTGGTGT  switch fluorescence ratio           1.02
 7        GGGGTACTGG  switch fluorescence ratio           1.01
 8        AGTGAGCTAT  switch fluorescence ratio           1.01
 9        CAGTCATTCG  switch fluorescence ratio           0.99
10        TTGTTTTTTC  switch fluorescence ratio          0.986
11        GATCTTTCTG  switch fluorescence ratio          0.994
12        CAGAGTCTGT  switch fluorescence ratio          0.999
13         TACTAGGCG  switch fluorescence ratio           1.01
14        AAAAATTTGG  switch fluorescence ratio              1
15        AGGATGTTGG  switch fluorescence ratio          0.993
16        GGAGTTTGGT  switch fluorescence ratio           1.01
17        GGTTTGTGTG  switch fluorescence ratio          0.991
18        AATCGTGGAA  switch fluorescence ratio           1.01
19        ATTGTGCAGG  switch fluorescence ratio          0.998
20        AAGGGGGGCA  switch fluorescence ratio          0.966
21        TCCGGCGGGA  switch fluorescence ratio           1.26
22        CTGGCACTGG  switch fluorescence ratio           1.02
23        GGGTAGGGTA  switch fluorescence ratio          0.986
24        CACCGTGGTC  switch fluorescence ratio           1.14
25        CTCATTTATT  switch fluorescence ratio           0.98
26        CGGGCGCTGG  switch fluorescence ratio          0.995
27        GCATATCCGG  switch fluorescence ratio           1.02
28        TGAAAGTCTC  switch fluorescence ratio              1
29        AGCGGGGCGG  switch fluorescence ratio           1.02
30        GAGCAGATTG  switch fluorescence ratio           1.02
31        GGGGGGAAAC  switch fluorescence ratio              1
32        ATCTGGGGGA  switch fluorescence ratio          0.979
33        CGGTTTTATA  switch fluorescence ratio          0.962
34        CGCGGTATTA  switch fluorescence ratio           1.02
35        CGCTTTGACT  switch fluorescence ratio           1.08
36        CTTTGGCTTT  switch fluorescence ratio          0.967
37        ATTGAGCCAG  switch fluorescence ratio           1.03
38        TTAATTGGGC  switch fluorescence ratio           1.03
39        CGTTGCTCGA  switch fluorescence ratio          0.999
40        ATATCTCCGG  switch fluorescence ratio           1.07
41        ATAGAATCAG  switch fluorescence ratio          0.975
42        AAGGTATTTT  switch fluorescence ratio           1.01
43        ATGTCAGAGA  switch fluorescence ratio           1.02
44        ATAAGACCGT  switch fluorescence ratio           1.01
45        TGCTTATTTT  switch fluorescence ratio           1.01
46        GGTGGCTTGC  switch fluorescence ratio           1.01
47        TGATAAGGGG  switch fluorescence ratio           1.01
48        TGACAGGCGG  switch fluorescence ratio          0.963
49        TTTCTAGGGT  switch fluorescence ratio          0.994
50        TGGCATTTTT  switch fluorescence ratio          0.991
51        CCGCGCCGAT  switch fluorescence ratio           1.37
52        TGGTATGGGT  switch fluorescence ratio           1.23
53        AAGTTGATGT  switch fluorescence ratio              1
54        CAAATGATTT  switch fluorescence ratio          0.985
55        AGGGCTGATA  switch fluorescence ratio           1.01
56        TATGTGACTT  switch fluorescence ratio           1.03
57        TTTGGGACCT  switch fluorescence ratio              1
58        TTGGGGAGAG  switch fluorescence ratio          0.991
59        TACACCCTTC  switch fluorescence ratio           1.18
60        CGTGAGATGC  switch fluorescence ratio           1.01
61        ACAAGATACG  switch fluorescence ratio           1.13
62        GTTGGGCGGA  switch fluorescence ratio          0.993
63        ATCGGGGGGA  switch fluorescence ratio          0.986
64        AATCTGTCGT  switch fluorescence ratio          0.982
65        TTAAAGTGTT  switch fluorescence ratio           1.09
66        GGGATAAAGA  switch fluorescence ratio              1
67        GTAAATTTGC  switch fluorescence ratio           1.01
68        CACTCTCAGC  switch fluorescence ratio           1.04
69        AAATGCCGAT  switch fluorescence ratio          0.992
70        TTTGCTGGTG  switch fluorescence ratio            1.1
71        CGACTACCTT  switch fluorescence ratio           1.21
72        AATGAACGTT  switch fluorescence ratio           1.03
73        AGGTTGAAGT  switch fluorescence ratio          0.988
74        ACTTTTGGGT  switch fluorescence ratio           0.96
